Entries and their selectivity ratio
Test: Selectivity index, ratio of IC50 for human KB cells to IC50 for chloroquine-sensitive Plasmodium falciparum 3D7
Assay type: toxicity, cell-based
Conditions: read-out: Ratio IC50
Give only the figure.

N#Cc1c(-c2ccc(F)cc2)[n+]([O-])c2ccc(C(F)(F)F)cc2[n+]1[O-] ... 4.32
N#Cc1c(-c2ccc(Cl)cc2)[n+]([O-])c2ccc(C(F)(F)F)cc2[n+]1[O-] ... 1.77
Cc1ccc(-c2c(C#N)[n+]([O-])c3cc(C(F)(F)F)ccc3[n+]2[O-])cc1 ... 4.4

Consider now this further compound.
Problem: Need selectivity ratio, item `N#Cc1c(-c2ccccc2)[n+]([O-])c2ccc(C(F)(F)F)cc2[n+]1[O-]`
Solution: 8.55
